Tested on: Setaria faberi (SETFA)
assay method text: Example B post-emergence herbicidal activity, glasshouse pot test
Type: in vivo
conditions: 312 h, rate 250 g/ha, evaluated after 13 days, read-out: SETFA post-emergence activity (100=total damage to plant; 0=no damage to plant)
measured attribute: pest or weed control at 250 g/ha (%)
Numbers only, in %.

INSERT INTO assay_data (molecule, units, observed_measurement) VALUES
  ('CON1CCC2(CC1)NC(=O)C(c1cc(-c3ccc(Cl)cc3)c(C)cc1C)C2=O (centres unmarked)', '%', 90),
  ('CON1CCC2(CC1)NC(=O)C(c1c(C)cc(-c3ccc(Cl)cc3)cc1C)=C2OC(=O)C(C)(C)C', '%', 60),
  ('CCOC(=O)OC1=C(c2ccc(Br)cc2Cl)C(=O)NC12CCN(OC)CC2', '%', 90),
  ('CCOC(=O)OC1=C(c2cc(C3CC3)c(C)cc2C)C(=O)NC12CCN(OC)CC2', '%', 80),
  ('CON1CCC2(CC1)NC(=O)C(c1cc(C3CC3)c(C)cc1C)=C2OC(=O)C(C)(C)C', '%', 60);

Count: 7. Required value per item: pest or weed control at 250 g/ha.
1. CON1CCC2(CC1)NC(=O)C(c1c(C)cc(-c3ccc(Cl)cc3)cc1C)C2=O (centres unmarked)
2. CCOC(=O)OC1=C(c2cc(-c3ccc(Cl)cc3)c(C)cc2C)C(=O)NC12CCN(OC)CC2
3. CON1CCC2(CC1)NC(=O)C(c1ccc(Br)cc1C)=C2OC(=O)C(C)(C)C
4. CON1CCC2(CC1)NC(=O)C(c1ccc(Br)cc1C)C2=O (centres unmarked)
5. CON1CCC2(CC1)NC(=O)C(c1ccc(Br)cc1Cl)C2=O (centres unmarked)
6. CCOC(=O)OC1=C(c2c(C)cc(-c3ccc(Cl)cc3)cc2C)C(=O)NC12CCN(OC)CC2
7. CON1CCC2(CC1)NC(=O)C(c1ccc(Br)cc1Cl)=C2OC(=O)C(C)(C)C

Response:
1. 100
2. 90
3. 90
4. 80
5. 80
6. 100
7. 90

Count: 2. Required value per item: pest or weed control at 250 g/ha.
1. CCOC(=O)OC1=C(c2ccc(Br)cc2C)C(=O)NC12CCN(OC)CC2
2. CON1CCC2(CC1)NC(=O)C(c1cc(C3CC3)c(C)cc1C)C2=O (centres unmarked)

Response:
1: 90; 2: 80

* * *

Test system: Avena fatua (AVEFA)
assay method text: Example B pre-emergence herbicidal activity, glasshouse pot test
Assay type: in vivo
conditions: 312 h, first table (headed Post-Emergence, taken as pre-emergence), rate 1000 g/ha, evaluated after 13 days, read-out: AVEFA activity (100=total damage to plant; 0=no damage to plant)
measured attribute: pest or weed control at 1000 g/ha (%)
Give bare numbers, in %.

Some entries whose results are on file:
INSERT INTO measurements (compound, observed_measurement) VALUES
  ('C=CCOC(=O)OC1=C(c2c(C)cc(C)cc2C)C(=O)NC12CCN(OC)CC2', 90),
  ('CON1CCC2(CC1)NC(=O)C(c1c(Cl)cccc1Cl)C2=O (stereo not shown)', 0),
  ('C=CCOC(=O)OC1=C(c2c(Cl)cccc2Cl)C(=O)NC12CCN(OC)CC2', 10);

Reported Avena fatua (AVEFA) pest or weed control at 1000 g/ha for item CCOC(=O)OC1=C(c2cc(-c3ccc(Cl)cc3)ccc2C)C(=O)NC12CCN(OC)CC2 was 90

* * *

Kindly state pest or weed control at 1000 g/ha for each of the entries shown.
Tested on: Setaria faberi (SETFA)
assay method text: Example B pre-emergence herbicidal activity, glasshouse pot test
Type: in vivo
conditions: 312 h, first table (headed Post-Emergence, taken as pre-emergence), rate 1000 g/ha, evaluated after 13 days, read-out: SETFA activity (100=total damage to plant; 0=no damage to plant)
Output should be the measured figure followed by the unit it is expressed in.

INSERT INTO assay_data (molecule, observed_measurement) VALUES
  ('CCON1CCC2(CC1)NC(=O)C(c1c(C)cc(C)cc1C)=C2OC(=O)C(C)(C)C', '60%'),
  ('C=CCOC(=O)OC1=C(c2c(C)cc(C)cc2C)C(=O)NC12CCN(OC)CC2', '100%'),
  ('CON1CCC2(CC1)NC(=O)C(c1cc(C)ccc1C)=C2OC(=O)C(C)C', '20%'),
  ('C=CCOC(=O)OC1=C(c2c(C)cc(Br)cc2C)C(=O)NC12CCN(OC)CC2', '90%'),
  ('CCOC(=O)OC1=C(c2c(C)cc(C)cc2C)C(=O)NC12CCN(OCC)CC2', '90%'),
  ('CON1CCC2(CC1)NC(=O)C(c1c(C)cc(C)cc1C)C2=O (centres unmarked)', '90%'),
  ('CCOC(=O)OC1=C(c2c(C)cc(Br)cc2C)C(=O)NC12CCN(OC)CC2', '80%');

Could you now look at the following molecule, please?
pest or weed control at 1000 g/ha for CCOC(=O)OC1=C(c2ccc(Cl)cc2Cl)C(=O)NC12CCN(OC)CC2 is 90%

* * *

Kindly state melting point for each of the entries shown.

Some entries whose results are on file:
INSERT INTO results (compound, measured_attribute, observed_measurement) VALUES
  ('C=CCOC(=O)OC1=C(c2c(C)cc(C)cc2C)C(=O)NC12CCN(OC)CC2 [Compound P43]', 'melting point', '174 to 176 °C'),
  ('CON1CCC2(CC1)NC(=O)C(c1c(Cl)cccc1Cl)=C2OC(=O)N(C)CCC#N [Compound P33]', 'melting point', '239 to 242 °C'),
  ('CON1CCC2(CC1)NC(=O)C(c1c(C)cc(-c3ccc(Cl)cc3)cc1C)C2=O (stereo not shown) [Compound T23]', 'melting point', '255 to 257 °C');

Could you now look at the following compound, please?
melting point for CCOC(=O)OC1=C(c2ccc(C3CC3)cc2C)C(=O)NC12CCN(OC)CC2 [Compound P60] is 193 to 195 °C

* * *

Kindly state melting point for each of the entries shown.

Some entries whose results are on file:
INSERT INTO measurements (compound, measured_attribute, observed_measurement) VALUES
  ('CON1CCC2(CC1)NC(=O)C(c1cc(C)ccc1C)=C2OCC#N', 'melting point', '104 to 106 °C'),
  ('CCOC(=O)OC1=C(c2c(C)cc(C3CC3)cc2C)C(=O)NC12CCN(OC)CC2', 'melting point', '215 to 216 °C'),
  ('C=CCOC(=O)OC1=C(c2c(Cl)cccc2Cl)C(=O)NC12CCN(OC)CC2', 'melting point', '203 to 205 °C');

Could you now look at the following compound, please?
melting point for CON1CCC2(CC1)NC(=O)C(c1ccc(Cl)c(Cl)c1)C2=O (stereo not shown) is 239 to 242 °C

* * *

System: Echinochloa crus-galli (ECHCG)
assay method text: Example A pre-emergence herbicidal activity, glasshouse pot test
Assay type: in vivo
conditions: 480 h, rate 250 g/ha, evaluated 20 days after spraying, read-out: ECHOG pre-emergence activity (100=total damage to plant; 0=no damage to plant)
measured attribute: pest or weed control at 250 g/ha (%)
Give bare numbers, in %.

INSERT INTO assay_data (compound, measured_attribute, units, observed_measurement) VALUES
  ('CON1CCC2(CC1)NC(=O)C(c1ccc(Br)cc1Cl)=C2OC(=O)C(C)(C)C', 'pest or weed control at 250 g/ha', '%', 60),
  ('CCOC(=O)OC1=C(c2cc(-c3ccc(Cl)cc3)ccc2C)C(=O)NC12CCN(OC)CC2', 'pest or weed control at 250 g/ha', '%', 60),
  ('CON1CCC2(CC1)NC(=O)C(c1c(C)cc(-c3ccc(Cl)cc3)cc1C)C2=O (centres unmarked)', 'pest or weed control at 250 g/ha', '%', 100),
  ('CCOC(=O)OC1=C(c2ccc(Cl)cc2Cl)C(=O)NC12CCN(OC)CC2', 'pest or weed control at 250 g/ha', '%', 20);

Could you now look at the following compound, please?
pest or weed control at 250 g/ha for CON1CCC2(CC1)NC(=O)C(c1cc(-c3ccc(Cl)cc3)ccc1C)C2=O (centres unmarked) is 10

* * *

Tested on: Echinochloa crus-galli (ECHCG)
assay method text: Example A pre-emergence herbicidal activity, glasshouse pot test
Type: in vivo
conditions: 480 h, rate 250 g/ha, evaluated 20 days after spraying, read-out: ECHOG pre-emergence activity (100=total damage to plant; 0=no damage to plant)
Kindly state pest or weed control at 250 g/ha for each of the entries shown.
Give bare numbers, in %.

INSERT INTO measurements (compound, measured_attribute, observed_measurement) VALUES
  ('CCOC(=O)OC1=C(c2c(C)cc(-c3ccc(Cl)cc3)cc2C)C(=O)NC12CCN(OC)CC2', 'pest or weed control at 250 g/ha', 100),
  ('CCOC(=O)OC1=C(c2c(C)cc(C)cc2C)C(=O)NC12CCN(OC)CC2', 'pest or weed control at 250 g/ha', 30),
  ('C=CCOC(=O)OC1=C(c2c(C)cc(C)cc2C)C(=O)NC12CCN(OC)CC2', 'pest or weed control at 250 g/ha', 80);

pest or weed control at 250 g/ha for CCOC(=O)OC1=C(c2cc(-c3ccc(Cl)cc3)c(C)cc2C)C(=O)NC12CCN(OC)CC2 is 50
